# Test target: ER (Homo sapiens)
# Construct: host or cells: T47D and MCF7 human breast cancer cells
# Test name: ER degradation activity, in-cell western blot analysis in T47D cells
# Type: cell-based
# Experimental setup: 16 hours, Table A does not say which cell line (T47D or MCF7), read-out: Potency (DC50)
I'd be grateful if you could share measured DC50 for these entries.

Known results for compounds:
INSERT INTO assay_data (compound, test_target, recorded_value) VALUES
  ('O=C1CCC(N2C(=O)c3cc4c(cc3C2=O)CN(CC2CN(C(=O)C3CCN(c5ccc([C@@H]6c7ccc(O)cc7CC[C@@H]6c6ccccc6)cc5)CC3)C2)C4)C(=O)N1 (mixture of isomers)', 'ER (Homo sapiens)', '0.01 to 0.1 µM'),
  ('C[C@@H]1Cc2c([nH]c3ccccc23)[C@@H](c2c(F)cc(C3CCN(C[C@H]4CC[C@H](N5Cc6cc7c(cc6C5)C(=O)N(C5CCC(=O)NC5=O)C7=O)CC4)CC3)cc2F)N1CC(F)F (some centres unmarked)', 'ER (Homo sapiens)', '> 0.1 µM'),
  ('O=C1CCC(N2C(=O)c3cc4c(cc3C2=O)CN(C2CCN(CC3CCN(c5ccc([C@@H]6c7ccc(O)cc7CC[C@@H]6c6ccccc6)cc5)CC3)CC2)C4)C(=O)N1 (some centres unmarked)', 'ER (Homo sapiens)', '< 0.01 µM');

Go through the items and report each one's DC50.
1. O=C1CCC(N2Cc3cc4c(cc3C2=O)CN(C(=O)CN2CC3(C2)CN(c2ccc(C5=C(c6ccc(F)cc6)CCCc6cc(O)ccc65)cc2)C3)C4)C(=O)N1 (centres unmarked)
2. C[C@@H]1Cc2c([nH]c3ccccc23)[C@@H](c2c(F)cc(N3CC(F)(C(=O)N4CCC(F)(CN5Cc6cc7c(cc6C5)C(=O)N(C5CCC(=O)NC5=O)C7=O)CC4)C3)cc2F)N1CC(F)F (some centres unmarked)

# output
["0.01 to 0.1 µM", "> 0.1 µM"]

---

# Test target: ER (Homo sapiens)
# Construct: host or cells: T47D and MCF7 human breast cancer cells
# Sequence (P03372 1-595): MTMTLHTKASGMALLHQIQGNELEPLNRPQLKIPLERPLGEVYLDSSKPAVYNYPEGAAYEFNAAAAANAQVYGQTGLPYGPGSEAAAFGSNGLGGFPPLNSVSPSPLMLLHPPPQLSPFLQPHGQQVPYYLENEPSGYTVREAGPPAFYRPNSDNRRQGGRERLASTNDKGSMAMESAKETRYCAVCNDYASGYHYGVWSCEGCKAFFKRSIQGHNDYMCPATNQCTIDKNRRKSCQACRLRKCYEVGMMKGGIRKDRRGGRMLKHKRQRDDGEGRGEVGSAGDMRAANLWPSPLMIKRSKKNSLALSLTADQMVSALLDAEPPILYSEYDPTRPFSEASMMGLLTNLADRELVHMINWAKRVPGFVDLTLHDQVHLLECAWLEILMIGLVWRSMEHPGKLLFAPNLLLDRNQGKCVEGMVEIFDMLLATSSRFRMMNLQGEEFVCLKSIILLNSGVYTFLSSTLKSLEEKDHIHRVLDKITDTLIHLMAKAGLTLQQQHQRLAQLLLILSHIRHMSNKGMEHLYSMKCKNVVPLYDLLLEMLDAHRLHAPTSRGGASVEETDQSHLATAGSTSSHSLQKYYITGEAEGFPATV
# Test name: ER degradation activity, in-cell western blot analysis in T47D cells
# Format: cell-based
# Experimental setup: 16 hours, Table A does not say which cell line (T47D or MCF7), read-out: Potency (DC50)
Readout: DC50

Worked examples, 5 compounds total:
INSERT INTO assay_data (compound, recorded_value) VALUES
  ('O=C1CCC(N2C(=O)c3cc4c(cc3C2=O)CN(CC(=O)N2CCC3(CC2)CCN(c2ccc([C@@H]5c6ccc(O)cc6CC[C@@H]5c5ccccc5)cc2)CC3)C4)C(=O)N1 (stereo partly shown) [E 149]', '< 0.01 µM'),
  ('C[C@@H]1Cc2c([nH]c3ccccc23)[C@@H](c2ccc(C3CCC(C(=O)N4CCC(N5Cc6cc7c(cc6C5)C(=O)N(C5CCC(=O)NC5=O)C7=O)CC4)CC3)cc2F)N1CC(F)F (stereo partly shown) [E 312]', '0.01 to 0.1 µM'),
  ('C[C@H]1Cc2c([nH]c3ccccc23)[C@H](c2c(F)cc(N3CC4(CCCN(C(=O)CN5Cc6cc7c(cc6C5)C(=O)N(C5CCC(=O)NC5=O)C7=O)C4)C3)cc2F)N1CC(F)F (stereo in doubt) [E 80]', '0.01 to 0.1 µM'),
  ('O=C1CCC(N2C(=O)c3cc4c(cc3C2=O)CN([C@H]2CC[C@@H](C(=O)N3CC(Nc5ccc([C@H]6c7ccc(O)cc7CC[C@H]6c6ccccc6)cc5)C3)CC2)C4)C(=O)N1 (stereo partly shown) [E 386]', '> 0.1 µM'),
  ('O=C1CCC(N2C(=O)c3cc4c(cc3C2=O)CN(CC(=O)N2CCC3(CC2)CCN(c2ccc([C@@H]5c6ccc(O)cc6CC[C@@H]5c5ccccc5)cn2)CC3)C4)C(=O)N1 (mixture of isomers) [E 297]', '> 0.1 µM');

Each of the following entries comes with a recorded value; kindly state DC50 for each.
1. C[C@@H]1Cc2c([nH]c3ccccc23)[C@@H](c2c(F)cc(N3CC4(CN(CC(=O)N5Cc6cc7c(cc6C5)C(=O)N(C5CCC(=O)NC5=O)C7)C4)C3)cc2F)N1CC(F)F (stereo partly shown) [E 65]
2. C[C@@H]1Cc2c([nH]c3ccccc23)[C@@H](c2c(F)cc(N3CC(C(=O)N4CCC(CN5Cc6cc7c(cc6C5)C(=O)N(C5CCC(=O)NC5=O)C7=O)CC4)C3)cc2F)N1CC(F)F (stereo partly shown) [E 121]
3. C[C@@H]1Cc2c([nH]c3ccccc23)[C@@H](c2c(F)cc(N3CC(C(=O)N4CC(N5Cc6cc7c(cc6C5)C(=O)N(C5CCC(=O)NC5=O)C7=O)C4)C3)cc2F)N1CC(F)F (stereo partly shown) [E 229]
4. O=C1CCC(N2C(=O)c3cc4c(cc3C2=O)CN(C(=O)CN2CCC3(CC2)CCN(c2ccc(C(=C(CCCl)c5ccccc5)c5ccc(O)cc5)cc2)C3)C4)C(=O)N1 (stereo not shown) [E 191]
5. CN(C1CCN(c2ccc([C@@H]3c4ccc(O)cc4CC[C@@H]3c3ccccc3)cc2)CC1)N1CCC(CN2Cc3cc4c(cc3C2)C(=O)N(C2CCC(=O)NC2=O)C4)CC1 (mixture of isomers) [E 300]

# output
1. < 0.01 µM
2. < 0.01 µM
3. 0.01 to 0.1 µM
4. 0.01 to 0.1 µM
5. > 0.1 µM
